System: Male CD-1 mice
EXPERIMENT: Oil of mustard induced colitis model
Type: in vivo
PARTICULARS: Therapeutic Regimen, 5 mg/kg oral; 5 mg/kg
Listed compounds paired with reported % Inh (Macro), % inhibition of colitis, macroscopic score
Kindly provide the numeric value in % only, without the unit symbol.

Study these solved cases before continuing.
{"COMPOUND": "O=C(N[C@@H](CO)c1ccccc1)c1n[nH]c2c1CCCCC2Cc1cccc(Cl)c1 (stereo in doubt) [Cpd 229]", "NUMERIC_READOUT": 56.9}
{"COMPOUND": "O=C(N[C@H](CO)c1ccccc1)c1n[nH]c2c1CCCCC2Cc1cccc(Cl)c1 (single isomer, unassigned) [Cpd 231]", "NUMERIC_READOUT": "−19"}
{"COMPOUND": "O=C(N[C@@H](CO)c1ccccc1)c1n[nH]c2c1CCCCC2Cc1cccc(Cl)c1 (stereo in doubt) [Cpd 228]", "NUMERIC_READOUT": 51.7}

Then this compound:
Input: Please look up its % Inh (Macro), % inhibition of colitis, macroscopic score: O=C(N[C@H](CO)c1ccccc1)c1n[nH]c2c1CCCCC2Cc1cccc(Cl)c1 (single isomer, unassigned) [Cpd 230]
Output: 25.9

----------
Listed compounds paired with reported inhibition at 0.25 µM
TARGET_UNDER_TEST: CB2 receptor (Homo sapiens)
Construct: expressed in transfected cells
EXPERIMENT: Binding assay for CB2 agonists or inverse agonists (SK-N-MC membranes, [3H]-CP-55,940)
PARTICULARS: test concentration 0.25 μM (footnote 8); read-out: CB2 receptor binding percent inhibition
Kindly provide the numeric value in % only, without the unit symbol.

{"COMPOUND": "O=C(NCc1cccc(C(F)(F)F)c1)c1nn(Cc2ccccc2)c2c1CCCCC2c1ccccc1 (stereo not shown)", "inhibition at 0.25 µM, %": 12}
{"COMPOUND": "O=C(NCC(F)(F)F)c1nn(Cc2ccccc2)c2c1CCCCC2c1ccccc1 (stereo not shown)", "inhibition at 0.25 µM, %": 22}
{"COMPOUND": "COC(=O)[C@@H](Cc1ccc(F)cc1)NC(=O)c1nn(Cc2ccccc2)c2c1CCCCC2c1ccccc1 (stereo partly shown)", "inhibition at 0.25 µM, %": 0}

Then this compound:
Input: Give recorded inhibition at 0.25 µM with CB2 receptor (Homo sapiens) for the following compound: O=C(NCc1ccccc1)c1n[nH]c2c1CCCCC2Cc1ccc(F)cc1 (stereo not shown)
Output: 86

----------
TARGET_UNDER_TEST: CB1 receptor (Homo sapiens)
Construct: expressed in transfected cells
EXPERIMENT: Binding assay for CB1 agonists or inverse agonists (SK-N-MC membranes, [3H]-CP-55,940)
PARTICULARS: read-out: Cannabinoid CB1 Receptor Binding IC50; calculated by linear regression from percent inhibition at various test concentrations
REPORTED_METRIC: IC50 (µM)
Kindly provide the numeric value in µM only, without the unit symbol.

Input: Please look up its IC50: O=C(N[C@H](CO)c1ccccc1)c1n[nH]c2c1CCCCC2Cc1cccc(Cl)c1 (single isomer, unassigned)
Output: 0.3

----------
Listed molecules paired with reported CB2 receptor binding percent inhibition
TARGET_UNDER_TEST: CB2 receptor (Homo sapiens, UniProt P34972)
Construct: expressed in transfected cells
Sequence (P34972 whole entry): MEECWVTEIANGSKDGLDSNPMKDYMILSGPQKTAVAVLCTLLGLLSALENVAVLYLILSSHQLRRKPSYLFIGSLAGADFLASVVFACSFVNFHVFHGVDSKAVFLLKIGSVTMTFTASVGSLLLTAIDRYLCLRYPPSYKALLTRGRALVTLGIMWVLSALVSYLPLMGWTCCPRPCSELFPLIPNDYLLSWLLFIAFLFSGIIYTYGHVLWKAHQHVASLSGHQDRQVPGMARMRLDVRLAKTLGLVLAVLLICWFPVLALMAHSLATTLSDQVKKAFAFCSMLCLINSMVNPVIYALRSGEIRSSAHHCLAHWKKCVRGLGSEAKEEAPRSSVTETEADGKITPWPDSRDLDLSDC
EXPERIMENT: Binding assay for CB2 agonists or inverse agonists (SK-N-MC membranes, [3H]-CP-55,940)
PARTICULARS: test concentration not stated
Kindly provide the numeric value in % only, without the unit symbol.

{"MOLECULE": "O=C(NN1CCOCC1)c1nn(C2CCCCC2)c2c1CCCCC2Cc1ccc(F)cc1 (stereo not shown)", "MEASUREMENT_UNITS": "%", "NUMERIC_READOUT": 0}

Input: Give recorded CB2 receptor binding percent inhibition with CB2 receptor (Homo sapiens, UniProt P34972) for the following molecule: CCOC(=O)[C@H]1C2C=CC(C2)[C@H]1NC(=O)c1nn(C2CCCCC2)c2c1CCCCC2Cc1cccc(F)c1 (stereo partly shown)
Output: 10

Input: Give recorded CB2 receptor binding percent inhibition with CB2 receptor (Homo sapiens, UniProt P34972) for the following molecule: CCOC(=O)[C@H]1C2C=CC(C2)[C@H]1NC(=O)c1nn(-c2ccc(F)cc2F)c2c1CCCCC2Cc1cccc(F)c1 (stereo partly shown)
Output: 24

Input: Give recorded CB2 receptor binding percent inhibition with CB2 receptor (Homo sapiens, UniProt P34972) for the following molecule: C[C@H](NS(=O)(=O)/C=C/c1nn(-c2ccc(Cl)cc2Cl)c2c1CCCCC2Cc1cccc(Cl)c1)c1ccccc1 (stereo partly shown)
Output: 26

----------
Listed molecules paired with reported inhibition at 1 µM
TARGET_UNDER_TEST: CB1 receptor (Homo sapiens)
Construct: expressed in transfected cells
EXPERIMENT: Binding assay for CB1 agonists or inverse agonists (SK-N-MC membranes, [3H]-CP-55,940)
PARTICULARS: read-out: CB1 receptor binding percent inhibition, test concentration 1 μM (footnote 1)
Kindly provide the numeric value in % only, without the unit symbol.

Study these solved cases before continuing.
{"MOLECULE": "O=C(NCc1ccc(C(F)(F)F)cc1)c1nn(-c2ccc(Cl)cc2Cl)c2c1CCCCC2Cc1ccc(Cl)cc1 (stereo not shown)", "TARGET_UNDER_TEST": "CB1 receptor (Homo sapiens)", "inhibition at 1 µM / %": 70}
{"MOLECULE": "CCOC(=O)[C@H]1C2C=CC(C2)[C@H]1NC(=O)c1nn(C2CCCCC2)c2c1CCCCC2Cc1ccc(F)cc1 (stereo partly shown)", "TARGET_UNDER_TEST": "CB1 receptor (Homo sapiens)", "inhibition at 1 µM / %": 2}
{"MOLECULE": "C[C@H](NS(=O)(=O)/C=C/c1nn(-c2ccc(F)cc2F)c2c1CCCCC2Cc1cccc(F)c1)c1ccccc1 (stereo partly shown)", "TARGET_UNDER_TEST": "CB1 receptor (Homo sapiens)", "inhibition at 1 µM / %": 70}

Then this molecule:
Input: Please look up its inhibition at 1 µM: CC12CCC(C1)C(C)(C)[C@H]2NC(=O)c1nn(-c2ccc(Cl)cc2Cl)c2c1CCCCC2Cc1cccc(F)c1 (stereo partly shown)
Output: 65

----------
TARGET_UNDER_TEST: CB1 receptor (Homo sapiens)
Construct: expressed in transfected cells
EXPERIMENT: Binding assay for CB1 agonists or inverse agonists (SK-N-MC membranes, [3H]-CP-55,940)
PARTICULARS: read-out: CB1 receptor binding percent inhibition, test concentration 0.2 μM (footnote 2)
REPORTED_METRIC: inhibition at 0.2 µM

{"COMPOUND": "C[C@@H](NC(=O)c1nn(-c2ccncc2)c2c1CCCC/C2=C\\c1ccc(Cl)cc1)C1CCCCC1 [Cpd 180]", "inhibition at 0.2 µM": "40%"}
{"COMPOUND": "C[C@H](NC(=O)c1nn(-c2ccc(Cl)cc2Cl)c2c1CCCC/C2=C\\c1ccc(Cl)cc1)C1CCCCC1 [Cpd 138]", "inhibition at 0.2 µM": "71%"}
{"COMPOUND": "COc1ccc(/C=C2\\CCCCc3c(C(=O)N[C@H](C)c4ccccn4)nn(-c4ccc(Cl)cc4Cl)c32)cc1 [Cpd 227]", "inhibition at 0.2 µM": "90%"}

Input: Please look up its inhibition at 0.2 µM: C[C@@H](NC(=O)c1nn(-c2nccc(C(F)(F)F)n2)c2c1CCCCC2Cc1cccc(Cl)c1)c1ccccc1 (stereo partly drawn) [Cpd 175]
Output: 30%

----------
Listed molecules paired with reported CB2 receptor binding percent inhibition
TARGET_UNDER_TEST: CB2 receptor (Homo sapiens)
Construct: expressed in transfected cells
EXPERIMENT: Binding assay for CB2 agonists or inverse agonists (SK-N-MC membranes, [3H]-CP-55,940)
PARTICULARS: test concentration not stated
Give the figure together with its unit, number first.

{"MOLECULE": "O=C(NC1C2CC3CC(C2)CC1C3)c1nn(-c2ccc(Cl)cc2Cl)c2c1CCCCC2Cc1ccc(Cl)cc1 (stereo not drawn)", "REPORTED_METRIC": "CB2 receptor binding percent inhibition", "RESULT": "23%"}

Then this molecule:
Input: Please look up its CB2 receptor binding percent inhibition: Cn1nc(C(=O)N[C@H]2C3(C)CCC(C3)C2(C)C)c2c1C(Cc1ccccc1Cl)CCCC2 (stereo partly drawn)
Output: 75%

----------
TARGET_UNDER_TEST: CB1 receptor (Homo sapiens, UniProt P21554)
Construct: expressed in transfected cells
Sequence (P21554 whole entry): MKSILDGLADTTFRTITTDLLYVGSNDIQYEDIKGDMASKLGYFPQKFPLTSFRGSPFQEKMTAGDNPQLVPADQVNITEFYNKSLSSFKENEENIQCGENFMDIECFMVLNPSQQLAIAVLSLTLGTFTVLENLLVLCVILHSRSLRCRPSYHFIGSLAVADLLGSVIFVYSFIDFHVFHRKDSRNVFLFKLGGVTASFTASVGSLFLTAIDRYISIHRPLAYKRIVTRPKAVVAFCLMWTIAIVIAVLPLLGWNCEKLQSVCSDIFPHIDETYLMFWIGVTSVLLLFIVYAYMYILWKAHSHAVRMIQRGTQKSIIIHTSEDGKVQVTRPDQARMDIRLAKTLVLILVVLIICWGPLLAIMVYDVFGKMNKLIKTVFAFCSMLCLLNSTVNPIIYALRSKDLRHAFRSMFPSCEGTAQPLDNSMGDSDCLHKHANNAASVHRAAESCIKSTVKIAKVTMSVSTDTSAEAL
EXPERIMENT: Binding assay for CB1 agonists or inverse agonists (SK-N-MC membranes, [3H]-CP-55,940)
PARTICULARS: read-out: CB1 receptor binding percent inhibition, test concentration 0.5 μM (footnote 10)
REPORTED_METRIC: inhibition at 0.5 µM (%)
Kindly provide the numeric value in % only, without the unit symbol.

Input: Please look up its inhibition at 0.5 µM: C[C@H](NS(=O)(=O)/C=C/c1n[nH]c2c1CCCCC2Cc1ccc(F)cc1)c1ccccc1 (stereo partly drawn)
Output: 33

Input: Please look up its inhibition at 0.5 µM: O=C(N[C@@H]1c2ccccc2C[C@@H]1O)c1nn(-c2ccc(Cl)cc2Cl)c2c1CCCCC2Cc1cccc(Cl)c1 (single isomer, unassigned)
Output: 44

Input: Please look up its inhibition at 0.5 µM: CCOC(=O)[C@@H]1C2CCC(C2)[C@@H]1NC(=O)c1nn(-c2ccc(F)cc2F)c2c1CCCCC2Cc1cccc(F)c1 (stereo partly drawn)
Output: 45
